Where these numbers come from: the supplement of paper PMC11451515

tested on: NOMO1; assay: cell viability relative to DMSO control; higher = less cytotoxic; details: RPMI 5 mM glucose + 10% FBS; 48 h; 5.12 µM
Endpoint Label: cell viability

- Compound: "OC[C@H]1O[C@@H](O[C@@H]2[C@@H](CO)O[C@](O)(CO)[C@H]2O)[C@H](O)[C@@H](O)[C@H]1O"
  Tested On: "NOMO1"
  Observed: "88.1%"
- Compound: "O=NN(CCCl)C(=O)NCCCl"
  Tested On: "NOMO1"
  Observed: "110%"
- Compound: "CC1=CC=CC=C1N2\\C(=N/C3=C(C(=CC=C3)C)C2=O)C[N]4C=NC5=C4N=CN=C5N"
  Tested On: "NOMO1"
  Observed: "69.2%"
- Compound: "Cc1ccccc1C(C(=O)NC1CCCCC1)N(C(=O)Cn1ccnc1C)c1cccc(F)c1 (centres undefined)"
  Tested On: "NOMO1"
  Observed: "90.7%"
- Compound: "FC(F)(F)c1ccc(/C=C/c2nc(COc3ccc(CCCCn4ccnn4)cc3)co2)cc1"
  Tested On: "NOMO1"
  Observed: "20.5%"

Quickly give me recorded cell viability for C[C@](O)(COc1ccc(C#N)cc1)C(=O)Nc1ccc(C#N)c(C(F)(F)F)c1
88.8%

Quickly give me recorded cell viability for C[C@H](NC(=O)/C(C#N)=C/c1cccc(Br)n1)c1ccccc1
19%

Quickly give me recorded cell viability for CCC(C)SSc1ncc[nH]1 (centres undefined)
104%

Quickly give me recorded cell viability for CC1(C)CCC[C@]2(C)[C@H]3CC(=O)O[C@]3(C)CC[C@@H]12
111%

Quickly give me recorded cell viability for COc1cc2c(cc1OC)C1CC(=O)C(CC(C)C)CN1CC2 (centres undefined)
113%
